- Measured On: receptor MRGX2 (Homo sapiens)
- Sequence (Q96LB1 1-330): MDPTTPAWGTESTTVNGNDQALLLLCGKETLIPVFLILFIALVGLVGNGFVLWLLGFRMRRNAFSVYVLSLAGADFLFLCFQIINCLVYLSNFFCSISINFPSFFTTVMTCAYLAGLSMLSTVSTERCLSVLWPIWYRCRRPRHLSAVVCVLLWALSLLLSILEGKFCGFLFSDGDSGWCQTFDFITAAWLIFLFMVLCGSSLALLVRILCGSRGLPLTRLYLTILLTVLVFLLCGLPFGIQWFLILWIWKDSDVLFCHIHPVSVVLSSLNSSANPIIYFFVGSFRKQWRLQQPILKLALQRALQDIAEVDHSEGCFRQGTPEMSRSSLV
- Test: Functional assay measuring intracellular calcium mobilisation (FLIPR)
- Assay type: cell-based
- Set-up: expressed in transfected cells; host or cells: e.g. HEK293 or CHO-K1 engineered to stably express Galpha15 / Gqi-5
- Experimental Context: Preliminary EC50 data for receptor MRGX2; transiently transfected host cells expressing Gα15 / Gqi-5, Fluo3 fluorescence; read-out: EC50
Where a SMILES comes first, the peptide text is derived from it. [ ]: non-standard residue; d: D form. The star is where a group is joined. Ahp = NCCCCCCC(=O)O; Bn = c1ccc(C*)cc1
Property Label: EC50 (nM)
Write it as a number; the unit nM goes unstated.

{"Compound": "C[C@@H](OCc1ccccc1)[C@@H]1NC(=O)[C@H](CCCCN)NC(=O)[C@@H](Cc2c[nH]c3ccccc23)NC(=O)[C@H](Cc2ccccc2)NC(=O)CCCCCCNC1=O [Cyclosomatostatin] (cyclo([Ahp]F[dW]KT(Bn)); ring closure inferred)", "EC50 (nM)": 1470}

Now take the following compound into account.
Form field: reported EC50 of C[C@H](N)C(=O)NCC(=O)N[C@H]1CSSC[C@@H](C(=O)O)NC(=O)[C@H](CO)NC(=O)[C@H]([C@@H](C)O)NC(=O)[C@H](Cc2ccccc2)NC(=O)[C@H]([C@@H](C)O)NC(=O)[C@H](CCCCN)NC(=O)[C@@H](Cc2c[nH]c3ccccc23)NC(=O)[C@H](Cc2ccccc2)NC(=O)[C@H](Cc2ccccc2)NC(=O)[C@H](CC(N)=O)NC(=O)[C@H](CCCCN)NC1=O [D-Trp-Somatostatin]
179

----------
- Measured On: UniProt:Q96LB1
- Sequence (Q96LB1 1-330): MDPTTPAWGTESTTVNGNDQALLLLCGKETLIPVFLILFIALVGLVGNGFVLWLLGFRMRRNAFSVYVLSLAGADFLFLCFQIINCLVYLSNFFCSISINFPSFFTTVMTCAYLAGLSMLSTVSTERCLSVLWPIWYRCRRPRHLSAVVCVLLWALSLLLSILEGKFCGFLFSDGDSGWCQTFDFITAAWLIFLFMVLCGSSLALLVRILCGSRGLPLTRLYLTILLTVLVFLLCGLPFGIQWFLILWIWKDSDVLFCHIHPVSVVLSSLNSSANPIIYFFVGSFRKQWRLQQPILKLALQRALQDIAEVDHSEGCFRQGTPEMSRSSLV
- Test: Functional assay measuring intracellular calcium mobilisation (FLIPR)
- Format: cell-based
- Parameters: expressed in transfected cells; host or cells: e.g. HEK293 or CHO-K1 engineered to stably express Galpha15 / Gqi-5
- Experimental Context: Preliminary EC50 data for receptor MRGX2; transiently transfected host cells expressing Gα15 / Gqi-5, Fluo3 fluorescence; read-out: EC50
Where a SMILES comes first, the peptide text is derived from it. Bridges are numbered along the chain shown (N, C = ends).
Recorded EC50 for the following compounds

Below, each entry is followed by its recorded EC50 result.
{"Compound": "CC(C)C[C@H](NC(=O)[C@H](CC(N)=O)NC(=O)[C@@H]1CCCN1C(=O)[C@@H](N)C(C)C)C(=O)N1CCC[C@H]1C(=O)N[C@@H](CCC(N)=O)C(=O)N[C@@H](CCCNC(=N)N)C(=O)N[C@@H](Cc1ccccc1)C(N)=O", "Result": "> 10000 nM"}
{"Compound": "CC[C@H](C)[C@@H]1NC(=O)[C@H](Cc2ccc(O)cc2)NC(=O)[C@@H](N)CSSC[C@@H](C(=O)N2CCC[C@H]2C(=O)N[C@@H](CC(C)C)C(=O)NCC(N)=O)NC(=O)[C@H](CC(N)=O)NC(=O)[C@H](CCC(N)=O)NC1=O", "Result": "1470 nM"}
{"Compound": "CC(C)[C@@H]1NC(=O)[C@H](CCCCN)NC(=O)[C@@H](Cc2c[nH]c3ccccc23)NC(=O)[C@H](Cc2ccc(O)cc2)NC(=O)[C@@H](NC(=O)[C@H](N)Cc2ccc3ccccc3c2)CSSC[C@@H](C(=O)N[C@H](C(N)=O)[C@@H](C)O)NC1=O [Peptide N9642]", "Result": "251 nM"}

Look at this compound and give its reported EC50. CC[C@H](C)[C@@H]1NC(=O)[C@H](Cc2ccc(O)cc2)NC(=O)[C@@H](N)CSSC[C@@H](C(=O)N2CCC[C@H]2C(=O)N[C@H](C(=O)NCC(N)=O)[C@@H](C)CC)NC(=O)[C@H](CC(N)=O)NC(=O)[C@H](CO)NC1=O [(Ser^4, Ile^8)-Oxytocin] (H-CYISNCPIG-NH2; disulfide 1-6)
7400 nM

Value source: patent EP1340979A2
